Each recorded value in this set is attributed to patent US6489475B2.

# maps each entry to its Result of Exp. Ex. 4: plasma lipoperoxidation inhibition
System: plasma
Assay: Plasma lipoperoxidation inhibitory effect (copper sulfate, malondialdehyde by thiobarbituric acid method)
Type: biochemical, rabbit
Settings: concentration 10^-5M; 37°C, 3 hours; malondialdehyde production inhibitory ratio
Excerpt: Plasma Lipoperoxidation Inhibitory Effect The blood was taken from male Japanese white rabbits weighing 2-2.5 kg under anesthesia and heparinized plasma was separated by a conventional method. […] The activity of the test compound was expressed as malondialdehyde production inhibitory ratio (%), namely, the proportion of inhibition of production of malondialdehyde as compared to control.
Form entry: value (%) — number only.

smiles entry | value measured
CCCCN1CCc2c(C)cc(C)c(NC(=O)C(C)(C)C)c21 | 85.1
Cc1cc(C)c(NC(=O)C(C)(C)C)c2c1CCN2CCCCCC(=O)O | 90.1
CCCCCCN1CCc2c(C)cc(C)c(NC(=O)C(C)(C)CO)c21 | 91.1
CCCCCCN1CCc2c(C)cc(C)c(NC(=O)C(C)(C)COC(C)=O)c21 | 91.1
CCOCCN1CCc2c(C)cc(C)c(NC(=O)C(C)(C)C)c21 | 90.5
CCCCCCCCN1CCc2c(C)cc(C)c(NC(=O)C(C)(C)C)c21 | 78.8

**Q:** Fill in the blank: the reported Result of Exp. Ex. 4: plasma lipoperoxidation inhibition of COCCN1CCc2c(C)cc(C)c(NC(=O)C(C)(C)C)c21 is ____.
**A:** 90.5

**Q:** Fill in the blank: the reported Result of Exp. Ex. 4: plasma lipoperoxidation inhibition of CCCCCCN1CCc2c(OC)cc(OC)c(NC(=O)C(C)(C)C)c21 is ____.
**A:** 86.4

**Q:** Fill in the blank: the reported Result of Exp. Ex. 4: plasma lipoperoxidation inhibition of CCCCCCN1CCc2c(C)cc(C)c(NC(=O)CC(C)(C)CC(=O)O)c21 is ____.
**A:** 87.1
